System: HCT-15 colon
testMethodNotes: NCI tumour cell line growth inhibition, 48 h
Each entry below carries its reported GI50.

Some solved cases for reference:
{"columns": ["smilesStr", "GI50"],
 "data": [
  ["Cc1nc2ccc(-n3ncc(C(=O)c4cc5ccccc5[nH]4)c3N)cc2[nH]1", "0.884 µM"],
  ["O=C(O)c1ccc(CSc2nc3ccccc3[nH]2)cc1", "> 100 µM"]
]}

For the next question, use this molecule.
GI50 for O=C(Cc1cc(O)ccc1O)NO ?
74.6 µM

###

Test system: RPMI-8226 leukemia
testMethodNotes: NCI tumour cell line growth inhibition, 48 h
readoutName: TGI

Some solved cases for reference:
{"columns": ["molecule", "testTarget", "TGI"],
 "data": [
  ["Nc1c(S(=O)(=O)O)cc(S(=O)(=O)O)c2ccc(N=Nc3ccccc3)c(O)c12", "RPMI-8226 leukemia", "> 100 µM"],
  ["CC/C(Cl)=N\\OC(=O)Nc1ccc(F)c(Cl)c1", "RPMI-8226 leukemia", "> 100 µM"],
  ["COc1ccc(OC(=O)N2C/C(=C\\c3ccccc3)C(=O)/C(=C/c3ccccc3)C2)cc1", "RPMI-8226 leukemia", "0.172 µM"],
  ["O=C1NC(c2ccc3ccccc3c2)Nc2ccccc21 (stereo not given)", "RPMI-8226 leukemia", "69.8 µM"],
  ["Nc1nc(N)c2cc(S(=O)(=O)c3ccc4ccccc4c3)ccc2n1", "RPMI-8226 leukemia", "> 100 µM"]
]}

TGI for O=C(CCN1CCCCC1)c1csc2ccccc12 ?
> 100 µM

TGI for CCN1CCN(Cc2ccc(NC(=O)Nc3nc(-c4cc(OC)c(OC)c(OC)c4)cs3)cc2C(F)(F)F)CC1 ?
4.24 µM

TGI for CCOc1cc(Cl)c(C(C)NC(=O)c2cccc(OC)c2)cc1OCC (stereo not given) ?
> 100 µM

TGI for CCN(N=O)C1C2(CCCC2)NC(=O)C12CCCC2 (stereo not given) ?
> 100 µM

TGI for C#CN1C(=O)c2c(c(-c3ccccc3)c(-c3ccc(Oc4ccc(-c5c(-c6ccccc6)c6c(c(-c7ccccc7)c5-c5ccccc5)C(=O)N(C#C)C6=O)cc4)cc3)c(-c3ccccc3)c2-c2ccccc2)C1=O ?
> 100 µM

TGI for CCOC(=O)c1c(C)n([O-])c2cc(F)c(F)cc2[n+]1=O ?
28.2 µM

###

System: MOLT-4 leukemia
testMethodNotes: NCI tumour cell line growth inhibition, 48 h
Each entry below carries its reported TGI.

Some solved cases for reference:
{"columns": ["compound", "TGI"],
 "data": [
  ["COc1ccc(C2=C(c3ccccc3)C(=O)N3CCCC3C2)cc1 (stereo not drawn)", "> 100 µM"],
  ["Nc1ccc(Oc2ccc(C34CC5C6CC7(c8ccc(Oc9ccc(N)cc9)cc8)CC5C(C3)C(C7)C6C4)cc2)cc1", "> 100 µM"]
]}

TGI for CCCCC/C=C\C=C\CCCCCCCCC(=O)OC ?
> 100 µM

###

Each entry below carries its reported TGI.
System: UACC-62 melanoma
testMethodNotes: NCI tumour cell line growth inhibition, 48 h

Some solved cases for reference:
{"columns": ["compound", "testTarget", "TGI"],
 "data": [
  ["CCCCCN1C(=O)C(Cc2ccccc2)N=C(c2ccc(O)cc2)c2cc(Cl)ccc21 (stereo unspecified)", "UACC-62 melanoma", "25 µM"],
  ["CCN(N=O)C1C2(CCCC2)NC(=O)C12CCCC2 (stereo unspecified)", "UACC-62 melanoma", "> 100 µM"],
  ["COc1ccc(-c2nc3sccn3c2-c2ccnc(NCCNS(=O)(=O)c3ccc(C(F)(F)F)cc3)n2)cc1", "UACC-62 melanoma", "3.4 µM"],
  ["CC(=O)OCc1nnn2c1C(OC(C)=O)CC2 (stereo unspecified)", "UACC-62 melanoma", "> 100 µM"],
  ["CN(C)CC1(Cc2ccccc2)CC/C(=C\\c2ccccc2)C1=O (stereo unspecified)", "UACC-62 melanoma", "> 100 µM"]
]}

Query TGI on UACC-62 melanoma for Cc1c(-c2coc(-c3ccc([N+](=O)[O-])cc3)n2)c(=O)n(-c2ccccc2)n1C
> 100 µM

Query TGI on UACC-62 melanoma for Cc1ccc(C2=NN(c3ccc(S(=O)(=O)NC(=O)NCc4ccccc4)cc3)C(c3ccc(N(C)C)cc3)C2)c(C)c1 (stereo unspecified)
6.8 µM
